What viability at 72 h, 50 µM was measured for each of the following?
# Experiment: MTT cytotoxicity in MRC-5 cells
# Format: cell-based
# Applied conditions: human, MRC-5 lung diploid fibroblast cells, 50 μM, read-out: percentage of viability, 72 h
Provide only the numeric value, understood in %.

viability at 72 h, 50 µM reported for this compound CC#Cc1ccc(C(=O)Nc2ccc(C3CC3N)cc2)cc1.Cl (stereo not drawn) [Compound 18] : 75

viability at 72 h, 50 µM reported for this compound CCCc1ccc(C(=O)Nc2ccc(C3CC3N)cc2)cc1.Cl (stereo not drawn) [Compound 15] : 92

viability at 72 h, 50 µM reported for this compound CN1CCN(c2cc(C(=O)Nc3ccc(C4CC4N)cc3)ccc2NC(=O)OCc2ccccc2)CC1 (stereo not drawn) [Compound 5] : 39

viability at 72 h, 50 µM reported for this compound C#Cc1ccc(C(=O)Nc2ccc(C3CC3N)cc2)cc1 (stereo not drawn) [MC3935, reference compound] : 94

viability at 72 h, 50 µM reported for this compound NC1CC1c1ccc(NC(=O)c2ccc(-c3ccccc3)cc2)cc1 (stereo not drawn) [Compound 2] : 10

viability at 72 h, 50 µM reported for this compound Cl.NC1CC1c1ccc(NC(=O)c2ccc(C#CC3CC3)cc2)cc1 (stereo not drawn) [Compound 19] : 85
